study target: AKR1C2 (Homo sapiens, UniProt P52895)
Sequence (P52895 1-323): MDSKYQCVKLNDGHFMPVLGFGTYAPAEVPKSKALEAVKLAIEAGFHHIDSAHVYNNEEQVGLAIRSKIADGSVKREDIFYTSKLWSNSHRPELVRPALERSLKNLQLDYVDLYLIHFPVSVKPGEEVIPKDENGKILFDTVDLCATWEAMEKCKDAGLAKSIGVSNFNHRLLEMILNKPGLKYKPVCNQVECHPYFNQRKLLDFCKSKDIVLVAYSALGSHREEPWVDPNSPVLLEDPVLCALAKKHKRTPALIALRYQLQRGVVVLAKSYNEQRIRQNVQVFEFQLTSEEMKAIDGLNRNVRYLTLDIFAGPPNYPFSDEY
test description: AKR1C2 inhibition, NADP+ dependent oxidation of S-tetralol
condition notes: selectivity for AKR1C3 over AKR1C2
endpoint: IC50 Ratio 1C2/1C3

Consider the worked cases shown below.
COC(=O)Cc1cn(C(=O)c2ccc(Cl)cc2)c2ccc(OC)cc12 :: >8
CCC(=O)Cc1cn(C(=O)OC)c2ccc(OC)cc12 :: >4
COc1ccc2c(c1)c1c(n2C(=O)c2ccc(Cl)cc2)CCC(C(=O)NS(C)(=O)=O)C1 (centres unmarked) :: > 20
COC(=O)Cc1c(C)n(C(=O)c2ccc(OC)cc2)c2ccc(OC)cc12 :: >12

Data request: What value of IC50 Ratio 1C2/1C3 has been recorded for this entry: COc1ccc2c(c1)c(CC(=O)O)cn2C(=O)c1ccc(F)cc1
Data returned: >20

Provenance of the data: paper PMC3638264
